B1: GA-binding protein alpha chain, residues 172 to 250; numbered along this chain, Q06546 (parent)
chain: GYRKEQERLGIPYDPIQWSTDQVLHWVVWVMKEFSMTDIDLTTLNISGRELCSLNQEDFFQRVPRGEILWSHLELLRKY

- Variants of: B1
- test_details: abundance fitness (aPCA) (normalised: wild type 0, dead -1); higher = more abundant; growth selection in yeast, the domain comes from the species named
- condition_info: Homo sapiens
Please mark class 1 if the recorded abundance fitness is equal to or greater than -0.4, and class 0 if it falls below.

[[record]]
variant_string = "I16R"
answer_label = "class 1"

[[record]]
variant_string = "S53A"
answer_label = "class 1"

[[record]]
variant_string = "W18V"
answer_label = "class 0"

[[record]]
variant_string = "K4P"
answer_label = "class 1"

[[record]]
variant_string = "V63N"
answer_label = "class 1"

[[record]]
variant_string = "L75H"
answer_label = "class 1"


Hello, I need to know if W70V has measured abundance fitness not below -0.4. Thanks! class 0
